Measured values drawn from ChEMBL document CHEMBL1201862 for this set.

System: HL-60
method-notes: NCI tumour cell line growth inhibition, 48 h
The source made the active and inactive calls. No stated cut-off is given here; in the data, active = GI50 up to about 1.1 µM and inactive = higher.
Outcomes you can answer with include only these: active, inactive

{"compound": "CC(C)(C)OC(=O)N[C@@H](Cc1ccccc1)C(=O)N1CC[C@@H](C(=O)N2[C@H]3CC4CC[C@@]3(CS2(=O)=O)C4(C)C)N1", "qualitative-label": "inactive"}
{"compound": "CCOC(=O)C(NCc1ccccc1)(NC(=O)c1ccccc1)C(F)(F)F (stereo not given)", "qualitative-label": "inactive"}
{"compound": "CCOC(=O)c1c(C)n(-c2ccc(Cl)cc2)c2c1cc(O)c1[nH]c3c(c12)CCCC3", "qualitative-label": "inactive"}
{"compound": "CCOC(=O)c1c(N2CCCC2)nsc1Nc1ccc(F)cc1", "qualitative-label": "inactive"}

## Input Could you please tell me the result logged for CC1=C(c2cc(C(=O)Nc3cccc(C(F)(F)F)c3)ncn2)Sc2ccccc2N1 in this assay?
## Output inactive

## Input Could you please tell me the result logged for O=[N+]([O-])c1ccc2nc3ccscc-3c2c1 in this assay?
## Output inactive

## Input Could you please tell me the result logged for COc1ccccc1[S+]([O-])Nc1ccccc1 (stereo not given) in this assay?
## Output inactive

## Input Could you please tell me the result logged for [N-]=[N+]=NC1=C(c2ccccc2)C(=O)c2cccc3cccc1c23 in this assay?
## Output inactive

## Input Could you please tell me the result logged for O=C(NCCO)c1cc2c(cn1)[nH]c1ccccc12 in this assay?
## Output inactive

## Input Could you please tell me the result logged for COC(=O)C(Cc1nc2ccccc2nc1O)C(=O)C(=O)Nc1ccc([N+](=O)[O-])cc1[N+](=O)[O-] (stereo not given) in this assay?
## Output inactive

## Input Could you please tell me the result logged for Cc1ccc(C)c(COCCOCn2cc(N3CCOCC3)c(=O)[nH]c2=O)c1 in this assay?
## Output inactive

## Input Could you please tell me the result logged for C[C@H](CCC(=O)O)[C@H]1CC[C@H]2[C@@H]3[C@H](O)[C@H](O)[C@@H]4C[C@H](O)CC[C@]4(C)[C@H]3CC[C@]12C in this assay?
## Output inactive

## Input Could you please tell me the result logged for CCOC(=O)C(NNS(=O)(=O)c1ccc(C)cc1)S(=O)(=O)C(F)(F)C(F)(F)C(F)(F)C(F)(F)F (stereo not given) in this assay?
## Output inactive

## Input Could you please tell me the result logged for COc1cc(Br)cc2c1O[C@H]1C(=O)CC3CC21CCN3C (stereo not given in full) in this assay?
## Output inactive

## Input Could you please tell me the result logged for C=CCOC(=O)/C(=C\c1ccc(OC)c(OC)c1)c1ccc(OC)c(OC)c1 in this assay?
## Output inactive

## Input Could you please tell me the result logged for O=[N+]([O-])c1ccc2c(Nc3ccccc3-c3ccccc3Nc3c4ccccc4nc4cc([N+](=O)[O-])ccc34)c3ccccc3nc2c1 in this assay?
## Output inactive

## Input Could you please tell me the result logged for COC(=O)C1(O)c2ccccc2N=C2C(=O)c3ccccc3N21 (stereo not given) in this assay?
## Output inactive

## Input Could you please tell me the result logged for O=C(O)c1ccc(/C=N\N(CCO)C2=NCCN2)cc1 in this assay?
## Output inactive

## Input Could you please tell me the result logged for [N-]=[N+]=NCC1OCC(O)C(OCc2ccccc2)C1OCc1ccccc1 (stereo not given) in this assay?
## Output inactive

## Input Could you please tell me the result logged for Cn1/c(=N\S(=O)(=O)c2ccccc2)n(S(=O)(=O)c2ccccc2)c2ccccc21 in this assay?
## Output active
